# Test details: binders of probe aFGF2 on microarray, primary screen, stem cell growth factor project, biochemical, small-molecule microarray, fluorescence 635/667 (AID 1067);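 also: measures binding of biotinylated aFGF2 protein to printed compounds on slides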
# Conditions: higher = more signal
Could you label it True if measured composite z-score is -0.03 or higher, and False otherwise?

{"Compound": "C=C(C(=O)CC[C@@H](OC(=O)c1cccnc1)c1ccccc1OCCO)C(C)C", "Assigned label": "False"}
{"Compound": "COC(=O)[C@@]1(Cc2ccc(OC)cc2)[C@H]2c3cc(C(=O)N(C)C)n(Cc4ccccn4)c3C[C@H]2CN1C(=O)c1ccccc1", "Assigned label": "True"}
{"Compound": "OCCCC1=CC(c2cccs2)N(Cc2cc3c(cc2Br)OCO3)CC1 (centres undefined)", "Assigned label": "False"}
{"Compound": "Oc1ccc2cc[n+](Cc3sc4ccccc4c3Cl)cc2c1", "Assigned label": "False"}
{"Compound": "C=C(COC)/C(=C/C[C@H](OC(C)=O)c1ccc(CO)o1)c1cc(C(=O)OC)ccc1OC", "Assigned label": "False"}
{"Compound": "CCCCCCc1nc(-c2cc(C)c(OC)c(C)c2)cc2c1[Si](C(C)C)(C(C)C)OC2", "Assigned label": "False"}
{"Compound": "CC1CC/C=C\\[C@H]2OC34C=CCN(C(C)(C)C)C(=O)[C@H]3N(C(C)CO)C(=O)[C@@H]4C2C(=O)O1 (some centres undefined)", "Assigned label": "False"}
{"Compound": "[N-]=[N+]=Nc1ccccc1[C@@H]1OC(c2ccc(OCCCO)cc2)=N[C@]1(Cc1ccccc1)C(=O)N1CCOCC1", "Assigned label": "True"}
{"Compound": "COC(=O)[C@@]1(Cc2ccccc2)N=C(c2ccc(OCCCO)cc2)O[C@H]1c1ccccc1", "Assigned label": "True"}
{"Compound": "COc1ccc(/C=C/C=O)cc1", "Assigned label": "False"}
{"Compound": "COCCOC(=O)N1C(=O)[C@@]2(c3cc(C#CCC(C(=O)OC)C(=O)OC)ccc31)[C@H](c1ccccc1OCCO)N1[C@H](c3ccccc3)[C@H](c3ccccc3)OC(=O)[C@H]1[C@@H]2C(=O)NC[C@H](O)c1ccccc1", "Assigned label": "False"}
{"Compound": "CC(C)NC(=O)[C@@]1(c2ccc([N+](=O)[O-])cc2)CC(=O)N(C2CCCCC2)[C@@H]1c1ccc(CO)cc1I", "Assigned label": "False"}
{"Compound": "CCCCN1CC=CC23O[C@@H]4C=CCCOC(=O)C4[C@H]2C(=O)N(CCCCCCO)[C@@H]3C1=O (some centres undefined)", "Assigned label": "False"}
{"Compound": "CC(CO)N1C(=O)[C@@H]2C3C(=O)OCCC/C=C\\[C@H]3OC23C=CCN(C(C)(C)C)C(=O)[C@@H]13 (some centres undefined)", "Assigned label": "False"}
{"Compound": "O=C(NC1CC1)[C@@H]1c2ccccc2C(=O)N(Cc2ccccc2Cl)[C@H]1c1ccc(CO)cc1", "Assigned label": "False"}
{"Compound": "CC(=O)NCCCC[C@@H]1NC(=O)[C@@H]2C[C@H](C(=O)NCCCCCNC(=O)CS)[C@H](c3cccc(OCCO)c3)N2C1=O", "Assigned label": "False"}
{"Compound": "[N-]=[N+]=NCc1ccccc1[C@@H]1OC(c2ccc(OCCCO)cc2)=N[C@]1(Cc1ccccc1)C(=O)NCC(O)CO (some centres undefined)", "Assigned label": "True"}
{"Compound": "C=CCN1C(=O)[C@@]2(Cc3ccccc31)N=C(c1ccc(OCCCO)cc1)O[C@H]2c1ccccc1", "Assigned label": "True"}
{"Compound": "O=C1O[C@H](c2ccccc2)[C@H](c2ccccc2)N2[C@H]1[C@@H](C(=O)N1CCCCCCC1)[C@]1(C(=O)Nc3ccc(C#CCCO)cc31)[C@H]2c1ccccc1OCCO", "Assigned label": "True"}
{"Compound": "COc1ccc([Si](C)(C)[C@@H]2[C@@H](CCO)O[C@]3(C(=O)N(Cc4ccc(N(C=O)c5ccccc5)cc4)c4ccccc43)[C@H]2C)cc1", "Assigned label": "False"}
{"Compound": "C=C(COC)/C(=C/C[C@@H](OC(C)=O)c1ccc(OCCO)cc1)c1cnc2ccccc2c1", "Assigned label": "True"}
{"Compound": "O=C1C[C@@](C(=O)NCCN2CCOCC2)(c2ccc([N+](=O)[O-])cc2)[C@@H](c2ccc(CO)cc2I)N1CC12CC3CC(CC(C3)C1)C2", "Assigned label": "True"}
{"Compound": "C=C(C)[C@@H]1CC=C(C(O)C2C=CC3C(=O)N(C)C(=O)C3N2Nc2ccccc2)CC1 (some centres undefined)", "Assigned label": "True"}
